These entries and their values trace back to ChEMBL document CHEMBL4270665.

method: Metabolic stability in C57BL/6 mouse hind limb assessed as compound remaining at 150 ul, sc measured after 72 hrs post dose by SPECT/CT analysis
Type: ADME, organism-based, Hindlimb
particulars: read-out: Stability
assayMetric: remaining at 72 h

substance | assayMetric | result
H-FQFQFK-NH2 | remaining at 72 h | 20%
H-FEFQFK-NH2 | remaining at 72 h | 20%

----------
method: Half life in human plasma at 9 uM at 37 degC by LC-MS analysis
Assay type: ADME, cell-free
Non-standard residues stand in square brackets, D forms with d. Residues, ends and D or L forms follow the SMILES beside them. Dmt = Cc1cc(O)cc(C)c1C[C@H](N)C(=O)O; β3hF = N[C@H](CC(=O)O)Cc1ccccc1

compound | unitOfMeasure | half-life at 9 µM
N=C(N)NCCC[C@@H](NC(=O)[C@@H](N)Cc1ccc(O)cc1)C(=O)N[C@@H](Cc1ccccc1)C(=O)N[C@@H](Cc1ccccc1)C(=O)N[C@@H](CCC(N)=O)C(=O)N[C@@H](Cc1ccccc1)C(=O)N[C@@H](CCC(N)=O)C(=O)N[C@@H](Cc1ccccc1)C(=O)N[C@@H](CCCCN)C(N)=O | min | 18
Cc1cc(O)cc(C)c1C[C@H](N)C(=O)N[C@H](CCCNC(=N)N)C(=O)N[C@@H](Cc1ccccc1)C(=O)N[C@@H](Cc1ccccc1)C(=O)N[C@@H](CCC(N)=O)C(=O)N[C@@H](Cc1ccccc1)C(=O)N[C@@H](CCC(N)=O)C(=O)N[C@@H](Cc1ccccc1)C(=O)N[C@@H](CCCCN)C(N)=O (H-[Dmt][dR]FFQFQFK-NH2) | min | 16
Cc1cc(O)cc(C)c1C[C@H](N)C(=O)N[C@H](CCCNC(=N)N)C(=O)N[C@@H](Cc1ccccc1)C(=O)N[C@@H](Cc1ccccc1)C(=O)N[C@@H](CCC(N)=O)C(=O)N[C@H](CC(=O)N[C@@H](Cc1ccccc1)C(=O)N[C@@H](CCC(N)=O)C(=O)N[C@@H](Cc1ccccc1)C(=O)N[C@@H](CCCCN)C(N)=O)Cc1ccccc1 (H-[Dmt][dR]FFQ[β3hF]FQFK-NH2) | min | 123

----------
assaySystem: UniProt:P35372
pKi: −log10 of the molar value.
pKi listing for selected compounds.

structureSmiles | pKi
Cc1cc(O)cc(C)c1C[C@H](N)C(=O)N[C@H](CCCNC(=N)N)C(=O)N[C@@H](Cc1ccccc1)C(=O)N[C@@H](Cc1ccccc1)C(=O)N[C@@H](CCC(N)=O)C(=O)O | 9.47
Cc1cc(O)cc(C)c1C[C@H](N)C(=O)N[C@H](CCCNC(=N)N)C(=O)N[C@@H](Cc1ccccc1)C(=O)N[C@@H](Cc1ccccc1)C(=O)N[C@@H](CCC(N)=O)C(=O)N[C@@H](Cc1ccccc1)C(=O)N[C@@H](CCC(N)=O)C(=O)O | 8.21
Cc1cc(O)cc(C)c1C[C@H](N)C(=O)N[C@H](CCCNC(=N)N)C(=O)N[C@@H](Cc1ccccc1)C(=O)N[C@@H](Cc1ccccc1)C(N)=O | 10.43

----------
# pEC50 annotations
assaySystem: Mu-type opioid receptor (Homo sapiens, UniProt P35372)
Sequence (P35372 whole entry, the tested form may be a part): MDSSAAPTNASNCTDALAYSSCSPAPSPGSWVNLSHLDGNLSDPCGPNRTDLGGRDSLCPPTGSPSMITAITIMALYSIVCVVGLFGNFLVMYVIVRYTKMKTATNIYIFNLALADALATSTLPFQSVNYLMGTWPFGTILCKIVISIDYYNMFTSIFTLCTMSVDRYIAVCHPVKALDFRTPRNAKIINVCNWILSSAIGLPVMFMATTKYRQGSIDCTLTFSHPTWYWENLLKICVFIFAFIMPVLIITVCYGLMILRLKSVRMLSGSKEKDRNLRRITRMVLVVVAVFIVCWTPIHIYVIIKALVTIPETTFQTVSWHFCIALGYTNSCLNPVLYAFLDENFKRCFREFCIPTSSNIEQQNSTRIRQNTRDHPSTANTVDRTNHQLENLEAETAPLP
method: Agonist activity at human MOR expressed in CHO cell membranes after 60 mins by [35S]GTPgammaS binding assay
pEC50: −log10 of the molar value.

structureSmiles | pEC50
Cc1cc(O)cc(C)c1C[C@H](N)C(=O)N[C@H](CCCNC(=N)N)C(=O)N[C@@H](Cc1ccccc1)C(=O)O | 8.44
Cc1cc(O)cc(C)c1C[C@H](N)C(=O)N[C@H](CCCNC(=N)N)C(=O)N[C@@H](Cc1ccccc1)C(=O)N[C@@H](Cc1ccccc1)C(N)=O | 9.72
Cc1cc(O)cc(C)c1C[C@H](N)C(=O)N[C@H](CCCNC(=N)N)C(=O)N[C@@H](Cc1ccccc1)C(=O)N[C@@H](Cc1ccccc1)C(=O)N[C@@H](CCC(N)=O)C(=O)N[C@@H](Cc1ccccc1)C(=O)N[C@@H](CCC(N)=O)C(=O)O | 7.32
Cc1cc(O)cc(C)c1C[C@H](N)C(=O)N[C@H](CCCNC(=N)N)C(=O)N[C@@H](Cc1ccccc1)C(=O)N[C@@H](Cc1ccccc1)C(=O)N[C@@H](CCC(N)=O)C(=O)O | 9.55

----------
assaySystem: Mu-type opioid receptor (Homo sapiens, UniProt P35372)
method: Agonist activity at human MOR expressed in human U2OS cells co-expressing enzyme acceptor-tagged beta-arrestin2 fusion protein assessed as induction of beta-arrestin2 recruitment preincubated for 90 mins measured by PathHunter assay
Assay type: functional, cell-based
Calls of active or inactive are those of the source. The rule behind the calls is not given here.

structureSmiles | Activity
Cc1cc(O)cc(C)c1C[C@H](N)C(=O)N1CCC[C@H]1C(=O)N[C@@H](Cc1ccccc1)C(=O)N[C@@H](Cc1ccccc1)C(N)=O | inactive
Cc1cc(O)cc(C)c1C[C@H](N)C(=O)N1CCC[C@H]1C(=O)N[C@@H](Cc1c[nH]c2ccccc12)C(=O)N[C@@H](Cc1ccccc1)C(N)=O | inactive
Cc1cc(O)cc(C)c1C[C@H](N)C(=O)N[C@H](CCCNC(=N)N)C(=O)N[C@@H](Cc1ccccc1)C(=O)N[C@@H](Cc1ccccc1)C(N)=O | inactive
Cc1cc(O)cc(C)c1C[C@H](N)C(=O)N[C@H](CCCCN)C(=O)N[C@@H](Cc1ccccc1)C(=O)N[C@@H](Cc1ccccc1)C(N)=O | inactive
Cc1cc(O)cc(C)c1C[C@H](N)C(=O)N[C@H](CCCNC(=N)N)C(=O)N[C@H]1Cc2ccccc2CN(CCC(N)=O)C1=O | inactive

----------
assaySystem: Mu-type opioid receptor (Homo sapiens, UniProt P35372)
method: Agonist activity at human MOR expressed in CHO cell membranes after 60 mins by [35S]GTPgammaS binding assay

structureSmiles | EC50
Cc1cc(O)cc(C)c1C[C@H](N)C(=O)N1CCC[C@H]1C(=O)N[C@@H](Cc1ccccc1)C(=O)N[C@@H](Cc1ccccc1)C(N)=O | 100 to 860 pM
Cc1cc(O)cc(C)c1C[C@H](N)C(=O)N1CCC[C@H]1C(=O)N[C@@H](Cc1c[nH]c2ccccc12)C(=O)N[C@@H](Cc1ccccc1)C(N)=O | 100 to 860 pM
Cc1cc(O)cc(C)c1C[C@H](N)C(=O)N[C@H](CCCCN)C(=O)N[C@@H](Cc1ccccc1)C(=O)N[C@@H](Cc1ccccc1)C(N)=O | 100 to 860 pM
